# ASSAYED_SYSTEM: Cytochrome P450 1A1 (Homo sapiens, UniProt P04798)
# Sequence (P04798 whole entry): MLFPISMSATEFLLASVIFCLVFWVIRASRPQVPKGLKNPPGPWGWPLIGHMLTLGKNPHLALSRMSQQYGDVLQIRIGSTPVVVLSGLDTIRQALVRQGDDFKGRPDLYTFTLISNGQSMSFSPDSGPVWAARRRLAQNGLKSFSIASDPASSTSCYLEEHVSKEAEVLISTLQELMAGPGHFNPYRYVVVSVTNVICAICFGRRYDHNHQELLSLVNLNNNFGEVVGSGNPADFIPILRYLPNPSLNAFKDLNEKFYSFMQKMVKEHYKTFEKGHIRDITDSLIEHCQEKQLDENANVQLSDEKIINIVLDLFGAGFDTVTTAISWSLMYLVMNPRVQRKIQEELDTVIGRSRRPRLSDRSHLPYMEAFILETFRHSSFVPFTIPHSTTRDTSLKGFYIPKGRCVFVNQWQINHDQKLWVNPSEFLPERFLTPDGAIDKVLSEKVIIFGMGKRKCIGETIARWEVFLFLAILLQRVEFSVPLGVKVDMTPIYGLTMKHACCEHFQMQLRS
# ASSAY_COMMENT: Inhibition of recombinant human CYP1A1 expressed in yeast microsomal membranes by fluorescence assay
# Format: cell membranes
MEASURED_METRIC: pIC50
The meaning of pIC50 here: minus log10 of the concentration in molar units.

# input Output pIC50 of CC(C)=CCc1cc(C2CC(=O)c3ccc(O)c(CC=C(C)C)c3O2)ccc1O (stereo unspecified)
# output 4.75
